Every entry's value here was drawn from paper PMC13242511.

Target: γ-secretase complex (Homo sapiens, UniProt P49768)
Assay: APP-C99 counter assay (GSI reporter assay)
Type: cell-based
Set-up: scale not given here
Conditions: area under the 14-point dose-response curve; replicates averaged
Reported Metric: AUC APP

>>> measured_result("CC(=O)Nc1cccc(-c2cn3ccnc3c(Nc3cccc(OC(F)(F)C(F)F)c3)n2)c1")
508.5
>>> measured_result("COc1cc(Nc2cncc(-c3cccc(N(C)C)c3)n2)cc(OC)c1OC")
501.6
>>> measured_result("NC(=O)[C@@H](CC1CC1)[C@@H](CCC(F)(F)F)C(=O)N[C@H]1N=C(c2ccccc2)c2cccc(F)c2NC1=O [BMS-983970, reference compound]")
486.6
>>> measured_result("COc1cccc(-c2nnc(NC(=O)c3ccc4c(c3)OCCO4)o2)c1")
490.0
>>> measured_result("O=C(Nc1nnc(-c2ccc3c(c2)OCCO3)o1)c1cccc(F)c1")
499.9
>>> measured_result("COc1cc(Nc2cncc(-c3cccc(N)c3)n2)cc(OC)c1OC")
545.0
>>> measured_result("Cc1c(C(C)NC(=O)c2[nH]c3ccccc3c2Cl)cnn1C (stereo not drawn)")
737.0
>>> measured_result("COc1cc(-c2cn3ccnc3c(Nc3ccccc3)n2)cc(OC)c1OC")
496.5
>>> measured_result("COc1ccc(-c2cn3ccnc3c(Nc3ccccc3)n2)cc1")
515.8
>>> measured_result("COC(=O)c1cccc(N2C(=O)c3ccc(Oc4cccc(NC(C)=O)c4)cc3C2=O)c1")
553.6
>>> measured_result("COc1cccc(CNc2ccc(N3CCCCC3)cc2)c1OCc1cccs1")
731.3
>>> measured_result("CC(=O)Nc1cccc(-c2cn3ccnc3c(Nc3ccccc3)n2)c1")
549.2
>>> measured_result("COc1cc(Nc2nc(-c3ccc(Cl)cc3)cn3ccnc23)cc(OC)c1OC")
492.9
>>> measured_result("Cc1ccc2[nH]c3c(c2c1)CCOC31CCN(Cc2ccccc2-c2ccccc2)CC1")
643.8
>>> measured_result("COc1cccc(CNc2ccc(N3CCOCC3)cc2)c1OCc1ccccc1F")
758.8
>>> measured_result("COc1ccc2[nH]c3c(c2c1)CCOC31CCN(Cc2ccccc2-c2ccccc2)CC1")
713.8
>>> measured_result("Cc1ccccc1Nc1nc(N)nc(CN2CCCC(C(F)(F)F)C2)n1 (stereo not drawn)")
566.4
>>> measured_result("Cc1cc(O)n(-c2nc3ccccc3s2)n1")
674.5

* * *

Target: γ-secretase complex (Homo sapiens, UniProt P49768)
Experiment: APP-C99 counter assay (GSI reporter assay)
Assay type: cell-based
Details: 24 h; 1,25µM; APP-C99 counter assay; read-out: 3p-DR in % of DMSO counter
Method: To this end, we used a previously established reporter gene-based GSI assay (APP-C99) (Fig. 3A), which measures γ-secretase activity through cleavage of amyloid precursor protein (APP), another protein processed by the γ-secretase complex[24] […] A DMSO plate was read before measuring luciferase activity of compound spotted plates. […] The area-under-the-curve (AUC) was calculated on dose–response curves using Graphpad Prism.
Reported Metric: remaining activity at […] (%)

Consider the worked cases shown below.
>>> measured_result("Cc1nn(-c2nc3ccccc3s2)c(O)c1C1OC(=O)c2ccccc21 (stereo not drawn)")
83.7
>>> measured_result("COc1cccc(CNc2ccc(N3CCCCC3)cc2)c1OCc1cccs1")
157
>>> measured_result("O=C(Nc1nnc(-c2ccc3c(c2)OCCO3)o1)c1ccccc1F")
124
>>> measured_result("Cc1ccccc1Nc1nc(N)nc(CN2CCCC(C(F)(F)F)C2)n1 (stereo not drawn)")
92.5
>>> measured_result("CC1CCc2c(sc3ncnc(NCCCN4CCCCCC4=O)c23)C1 (stereo not drawn)")
96.6
>>> measured_result("CCOc1ccccc1-c1ccccc1NC(=O)c1ccc2c(c1)ncn2C1CC1")
113
>>> measured_result("COc1cccc(CNc2ccc(N3CCOCC3)cc2)c1OCc1ccccc1F")
102

A: Cc1[nH]c2cccc(C(=O)N3CCCCC3CCNC(=O)c3ccccc3)c2c1C (stereo not drawn)
B: CCc1c(C(=O)N(C)Cc2cnn(C(C)C)c2)[nH]c2ccccc12
Lab note: check whether A or B has the lower measured remaining activity at […]. Your answer should be the label of the entry you select. B
(B: 75.7%, A: 126%)

* * *

Measured IC50, listed per entry for reference.
System: Notch signalling
Assay: Notch reporter assay (12xCSL firefly luciferase / renilla luciferase, HEK293T Notch1ΔE reporter cell line clone #A1-11)
Format: cell-based
Details: Homo sapiens, HEK-293T, 14p Notch assay DR; log10 value; bottom constrained to Emax of positive control DAPT; read-out: approximated LogIC50 (converted)

Consider the worked cases shown below.
>>> measured_result("COc1cc(Nc2cncc(-c3cccc(N(C)C)c3)n2)cc(OC)c1OC")
"> 40 µM"
>>> measured_result("COc1cccc(Nc2nc(-c3cccnc3)cn3ccnc23)c1")
"> 40 µM"
>>> measured_result("Cc1cc(O)n(-c2nc3ccccc3s2)n1")
"> 40 µM"
>>> measured_result("CC(=O)Nc1cccc(-c2cn3ccnc3c(Nc3cccc(OC(F)(F)C(F)F)c3)n2)c1")
"> 40 µM"

Alright, here's another compound for you.
Write down the reported IC50 (system: Notch signalling) of Cc1ccc2cc(C(=O)NC(C)c3cnn(C)c3C)[nH]c2c1 (centres unmarked) > 5 µM

* * *

Target: γ-secretase complex (Homo sapiens, UniProt P49768)
Experiment: APP-C99 counter assay (GSI reporter assay)
Assay type: cell-based
Settings: 14p APP assay DR; bottom constrained to Emax of positive control LY-411575
Reported Metric: Hill-slope

Consider the worked cases shown below.
>>> measured_result("COc1cc(Nc2nc(-c3cccc(O)c3)cn3ccnc23)cc(OC)c1OC")
"-3.83e-12"
>>> measured_result("COC(=O)c1cccc(N2C(=O)c3ccc(Oc4cccc(NC(C)=O)c4)cc3C2=O)c1")
0.0705
>>> measured_result("Cc1cc(O)n(-c2nc3ccccc3s2)n1")
-0.00928

1: COc1cccc(CNc2ccc(N3CCCCC3)cc2)c1OCc1cccs1
2: COc1cc(Nc2cncc(-c3cccc(N)c3)n2)cc(OC)c1OC
Lab note: check whether 1 or 2 has the lower measured Hill-slope. Your answer should be the label of the entry you select. 1
(1: 0.0377, 2: 0.0798)

* * *

Molecular target: γ-secretase complex (Homo sapiens, UniProt P49768)
Assay: APP-C99 counter assay (GSI reporter assay)
Type: cell-based
Conditions: 14p APP assay DR; bottom constrained to Emax of positive control LY-411575
Reported Metric: Hill-slope

I: CC(=O)Oc1cccc(N2C(=O)c3ccc(Oc4cccc(N)c4)cc3C2=O)c1
II: COc1cccc(-c2nnc(NC(=O)c3ccc4c(c3)OCCO4)o2)c1
Would you let me know which has the greater Hill-slope value, I or II ? Your answer should be the label of the entry you select. II

A: Cc1c(C(C)NC(=O)c2[nH]c3ccccc3c2Cl)cnn1C (stereo not drawn)
B: CCc1c(C(=O)N(C)Cc2cnn(C(C)C)c2)[nH]c2ccccc12
C: COc1ccc2[nH]c3c(c2c1)CCOC31CCN(C(=O)c2ccccc2C(=O)O)CC1
Order these by Hill-slope, descending, and give the full ranking. Provide the ranking by listing each label in its place in the requested order. A, B, C
